FYI, the data here is from patent US20080234332A1.

Biological target: VEGFR2 (Homo sapiens)
Construct: GST (N); His6 (N); Thrombin cleavage site (N); purchased Cell Signaling Technologies; host or cells: baculovirus expression system
Assay: HTScan VEGFR2 Kinase Assay (DELFIA)
Format: biochemical
Conditions: 200 μM ATP; read-out: VEGFR2 IC50 grade
recorded endpoint: IC50

Prompt: # query: IC50 of entry O=C(CCCCCCCNCc1cc(Oc2ccc(NC(=O)Nc3ccc(Cl)c(C(F)(F)F)c3)cc2)ccn1)NO [Compound 18]
Completion: 100 to 1000 nM

Prompt: For O=C(CCCCCCC(=O)Nc1cc(Oc2ccc(NC(=O)Nc3ccc(Cl)c(C(F)(F)F)c3)cc2)ccn1)NO [Compound 12] , what is its reported IC50?
Completion: < 100 nM

Prompt: So what's the measured IC50 for this one? O=C(CCCC(=O)NCc1cc(Oc2ccc(NC(=O)Nc3ccc(Cl)c(C(F)(F)F)c3)cc2)ccn1)NO [Compound 20]
Completion: < 100 nM

Prompt: Which IC50 value belongs to O=C(Nc1ccc(Oc2ccnc(C(=O)NO)c2)cc1)Nc1ccc(Cl)c(C(F)(F)F)c1 [Compound 36] ?
Completion: 1000 to 10000 nM

* * *

pIC50: −log10 of the molar value.
recorded endpoint: pIC50

Prompt: Lab request: please report pIC50 under test system cKit (Homo sapiens) for O=C(CCCCCCCNC(=O)c1cc(Oc2ccc(NC(=O)Nc3ccc(Cl)c(C(F)(F)F)c3)cc2)ccn1)NO [Compound 7]
Completion: > 7.00

* * *

Target: VEGFR2 (Homo sapiens, UniProt P35968)
Construct: GST (N); His6 (N); Thrombin cleavage site (N); purchased Cell Signaling Technologies; host or cells: baculovirus expression system
Sequence (P35968 805-1356): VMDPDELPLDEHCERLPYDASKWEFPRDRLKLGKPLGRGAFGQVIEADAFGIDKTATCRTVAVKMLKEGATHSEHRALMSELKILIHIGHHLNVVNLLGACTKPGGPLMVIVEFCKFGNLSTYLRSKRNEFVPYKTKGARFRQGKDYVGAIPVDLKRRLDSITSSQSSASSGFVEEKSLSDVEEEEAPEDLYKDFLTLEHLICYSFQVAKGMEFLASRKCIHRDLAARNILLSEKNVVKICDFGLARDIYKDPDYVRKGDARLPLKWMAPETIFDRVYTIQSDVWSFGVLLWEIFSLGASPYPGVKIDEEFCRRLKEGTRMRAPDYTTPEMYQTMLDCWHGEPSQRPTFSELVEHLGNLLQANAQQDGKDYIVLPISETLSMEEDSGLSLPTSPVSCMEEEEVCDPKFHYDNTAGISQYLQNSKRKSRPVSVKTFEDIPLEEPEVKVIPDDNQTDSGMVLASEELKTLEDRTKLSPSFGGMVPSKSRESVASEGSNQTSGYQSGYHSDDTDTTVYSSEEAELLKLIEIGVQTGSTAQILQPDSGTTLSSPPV
Test: HTScan VEGFR2 Kinase Assay (DELFIA)
Format: biochemical
Conditions: 200 μM ATP; read-out: VEGFR2 IC50 grade
recorded endpoint: IC50

Prompt: Recorded IC50 of O=C(CCCCCCCNC(=O)c1cc(Oc2ccc(NC(=O)Nc3ccc(Cl)c(C(F)(F)F)c3)cc2)ccn1)NO [Compound 7] , please.
Completion: 0.1 to 1 µM

Prompt: So what's the measured IC50 for this one? O=C(CCCCCCC(=O)NCc1cc(Oc2ccc(NC(=O)Nc3ccc(Cl)c(C(F)(F)F)c3)cc2)ccn1)NO [Compound 23]
Completion: < 0.1 µM

Prompt: Can you look up the measured IC50 of O=C(CCCC(=O)Nc1cc(Oc2ccc(NC(=O)Nc3ccc(Cl)c(C(F)(F)F)c3)cc2)ccn1)NO [Compound 9] for me?
Completion: < 0.1 µM

Prompt: Fill in: IC50 of O=C(CCCCC(=O)NCc1cc(Oc2ccc(NC(=O)Nc3ccc(Cl)c(C(F)(F)F)c3)cc2)ccn1)NO [Compound 21] is ___
Completion: < 0.1 µM

Prompt: Query (compound): O=C(CCCCOc1cc(Oc2ccc(NC(=O)Nc3ccc(Cl)c(C(F)(F)F)c3)cc2)ccn1)NO [Compound 32] ; field requested: IC50
Completion: < 0.1 µM

Prompt: Could you tell me which IC50 is on file for O=C(CCCCCCNCc1cc(Oc2ccc(NC(=O)Nc3ccc(Cl)c(C(F)(F)F)c3)cc2)ccn1)NO [Compound 17] ?
Completion: 0.1 to 1 µM

Prompt: Please give the measured IC50 for this compound: O=C(CCCCCNC(=O)c1cc(Oc2ccc(NC(=O)Nc3ccc(Cl)c(C(F)(F)F)c3)cc2)ccn1)NO [Compound 5]
Completion: < 0.1 µM
